Test system: Escherichia coli TOP10
Test: shrunken log2 fold change of peptide-encoding DNA abundance (4.5 h post-induction vs induction); higher = less antimicrobial activity (less host growth inhibition)
Conditions: time post-induction: 4.5 h; library: site-saturation at positions 5, 18, 19, 20
The sequences listed here are annotated with their shrunken log2 fold change.
// no unit, no text: just the number

The following sequences have reported results that may help.
RRIRYRPPRLPRPRPRPNIPPRP -1.09
RRIRNRPPRLPRPRPRPIKVPRP -0.607
RRIRYRPPRLPRPRPRPLVPPRP -0.539

Query :: # get_value(readout='shrunken log2 fold change', item= RRIRERPPRLPRPRPRPDCFPRP )
Result :: 0.316

Query :: # get_value(readout='shrunken log2 fold change', item= RRIRARPPRLPRPRPRPLNHPRP )
Result :: -0.265

Query :: # get_value(readout='shrunken log2 fold change', item= RRIRNRPPRLPRPRPRPDAFPRP )
Result :: -0.0836

Query :: # get_value(readout='shrunken log2 fold change', item= RRIRPRPPRLPRPRPRPRKRPRP )
Result :: 0.198

Query :: # get_value(readout='shrunken log2 fold change', item= RRIRVRPPRLPRPRPRPFQPPRP )
Result :: -0.152

Query :: # get_value(readout='shrunken log2 fold change', item= RRIRVRPPRLPRPRPRPRAEPRP )
Result :: 0.677

Query :: # get_value(readout='shrunken log2 fold change', item= RRIRHRPPRLPRPRPRPANQPRP )
Result :: -0.0712

Query :: # get_value(readout='shrunken log2 fold change', item= RRIRSRPPRLPRPRPRPRSVPRP )
Result :: 0.0603

----------
System: Escherichia coli TOP10
Experiment: shrunken log2 fold change of peptide-encoding DNA abundance (4.5 h post-induction vs induction); higher = less antimicrobial activity (less host growth inhibition)
Conditions: time post-induction: 4.5 h; library: site-saturation at positions 5, 18, 19, 20
measurementType: shrunken log2 fold change
// no unit, no text: just the number

The following sequences have reported results that may help.
RRIRFRPPRLPRPRPRPRSGPRP 0.444
RRIRGRPPRLPRPRPRPQEFPRP 0.27

Query :: # get_value(readout='shrunken log2 fold change', item= RRIRLRPPRLPRPRPRPLFKPRP )
Result :: -0.188

Query :: # get_value(readout='shrunken log2 fold change', item= RRIRFRPPRLPRPRPRPFYAPRP )
Result :: -0.542

Query :: # get_value(readout='shrunken log2 fold change', item= RRIRLRPPRLPRPRPRPTPKPRP )
Result :: 0.137

Query :: # get_value(readout='shrunken log2 fold change', item= RRIRWRPPRLPRPRPRPVYTPRP )
Result :: -0.242

Query :: # get_value(readout='shrunken log2 fold change', item= RRIRKRPPRLPRPRPRPMCIPRP )
Result :: -0.00174

Query :: # get_value(readout='shrunken log2 fold change', item= RRIRHRPPRLPRPRPRPITQPRP )
Result :: -0.0204

Query :: # get_value(readout='shrunken log2 fold change', item= RRIRQRPPRLPRPRPRPWIQPRP )
Result :: -0.251

Query :: # get_value(readout='shrunken log2 fold change', item= RRIRMRPPRLPRPRPRPSQHPRP )
Result :: 0.136

Query :: # get_value(readout='shrunken log2 fold change', item= RRIRNRPPRLPRPRPRPPSFPRP )
Result :: -0.0746

Query :: # get_value(readout='shrunken log2 fold change', item= RRIRCRPPRLPRPRPRPLKCPRP )
Result :: -0.228

Query :: # get_value(readout='shrunken log2 fold change', item= RRIRGRPPRLPRPRPRPKFNPRP )
Result :: 0.353

Query :: # get_value(readout='shrunken log2 fold change', item= RRIRGRPPRLPRPRPRPQESPRP )
Result :: -0.0432

Query :: # get_value(readout='shrunken log2 fold change', item= RRIRQRPPRLPRPRPRPTNAPRP )
Result :: -0.309

----------
Tested on: Escherichia coli TOP10
Assay: shrunken log2 fold change of peptide-encoding DNA abundance (4.5 h post-induction vs induction); higher = less antimicrobial activity (less host growth inhibition)
Conditions: time post-induction: 4.5 h; library: site-saturation at positions 5, 18, 19, 20
Everything with shrunken log2 fold change lower than -0.04 is NO; everything else, including exactly -0.04, is YES.

RRIRWRPPRLPRPRPRPAEIPRP YES
RRIRQRPPRLPRPRPRPENLPRP YES
RRIRGRPPRLPRPRPRPPHQPRP YES
RRIRPRPPRLPRPRPRPWGNPRP NO
RRIRFRPPRLPRPRPRPKTYPRP NO

Query :: Given RRIRWRPPRLPRPRPRPMSWPRP , state whether its shrunken log2 fold change is at least -0.04.
Result :: YES

Query :: Given RRIRVRPPRLPRPRPRPALKPRP , state whether its shrunken log2 fold change is at least -0.04.
Result :: YES

Query :: Given RRIRRRPPRLPRPRPRPIEEPRP , state whether its shrunken log2 fold change is at least -0.04.
Result :: YES

Query :: Given RRIRKRPPRLPRPRPRPKHLPRP , state whether its shrunken log2 fold change is at least -0.04.
Result :: NO

Query :: Given RRIRFRPPRLPRPRPRPKSAPRP , state whether its shrunken log2 fold change is at least -0.04.
Result :: YES

Query :: Given RRIRQRPPRLPRPRPRPFYSPRP , state whether its shrunken log2 fold change is at least -0.04.
Result :: NO

Query :: Given RRIRYRPPRLPRPRPRPNCGPRP , state whether its shrunken log2 fold change is at least -0.04.
Result :: YES

----------
Test system: Escherichia coli TOP10
Assay: shrunken log2 fold change of peptide-encoding DNA abundance (4.5 h post-induction vs induction); higher = less antimicrobial activity (less host growth inhibition)
Details: time post-induction: 4.5 h; library: site-saturation at positions 5, 18, 19, 20
The sequences listed here are annotated with their shrunken log2 fold change.
// no unit, no text: just the number

The following sequences have reported results that may help.
RRIRPRPPRLPRPRPRPGPQPRP 0.521
RRIRGRPPRLPRPRPRPDQMPRP 0.633
RRIRERPPRLPRPRPRPWYDPRP -0.392
RRIRQRPPRLPRPRPRPKLMPRP -0.082
RRIRLRPPRLPRPRPRPVQSPRP -0.031

Query :: # get_value(readout='shrunken log2 fold change', item= RRIRARPPRLPRPRPRPQCAPRP )
Result :: 0.216

Query :: # get_value(readout='shrunken log2 fold change', item= RRIRTRPPRLPRPRPRPQDLPRP )
Result :: -0.0848

Query :: # get_value(readout='shrunken log2 fold change', item= RRIRCRPPRLPRPRPRPFLPPRP )
Result :: -0.265

----------
Tested on: Escherichia coli TOP10
Test: shrunken log2 fold change of peptide-encoding DNA abundance (4.5 h post-induction vs induction); higher = less antimicrobial activity (less host growth inhibition)
Conditions: time post-induction: 4.5 h; library: site-saturation at positions 5, 18, 19, 20
The sequences listed here are annotated with their shrunken log2 fold change.
// no unit, no text: just the number

Query :: # get_value(readout='shrunken log2 fold change', item= RRIRSRPPRLPRPRPRPRQYPRP )
Result :: -0.274

Query :: # get_value(readout='shrunken log2 fold change', item= RRIRPRPPRLPRPRPRPDYAPRP )
Result :: 0.0585

Query :: # get_value(readout='shrunken log2 fold change', item= RRIRYRPPRLPRPRPRPLRHPRP )
Result :: -0.177

Query :: # get_value(readout='shrunken log2 fold change', item= RRIRARPPRLPRPRPRPSHDPRP )
Result :: 0.225

----------
System: Escherichia coli TOP10
Assay: shrunken log2 fold change of peptide-encoding DNA abundance (4.5 h post-induction vs induction); higher = less antimicrobial activity (less host growth inhibition)
Conditions: time post-induction: 4.5 h; library: site-saturation at positions 5, 18, 19, 20
Everything with shrunken log2 fold change lower than 0.03 is Criterion not met; everything else, including exactly 0.03, is Criterion met.

Query :: Given RRIRNRPPRLPRPRPRPLTGPRP , state whether its shrunken log2 fold change is at least 0.03.
Result :: Criterion met

Query :: Given RRIRDRPPRLPRPRPRPGPVPRP , state whether its shrunken log2 fold change is at least 0.03.
Result :: Criterion met

Query :: Given RRIRERPPRLPRPRPRPSVHPRP , state whether its shrunken log2 fold change is at least 0.03.
Result :: Criterion not met

Query :: Given RRIRWRPPRLPRPRPRPQKEPRP , state whether its shrunken log2 fold change is at least 0.03.
Result :: Criterion not met

Query :: Given RRIRGRPPRLPRPRPRPHMSPRP , state whether its shrunken log2 fold change is at least 0.03.
Result :: Criterion met

----------
Test system: Escherichia coli TOP10;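 further: peptides expressed intracellularly from a pBAD plasmid library in pooled LB shake-flask culture, induced with 0.3% L-arabinose, DNA abundance read by NGS, three biological replicates, DESeq2 with apeglm shrinkage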
Test: shrunken log2 fold change of peptide-encoding DNA abundance (4.5 h post-induction vs induction); higher = less antimicrobial activity (less host growth inhibition)
Conditions: time post-induction: 4.5 h; library: site-saturation at positions 5, 18, 19, 20
measurementType: shrunken log2 fold change
// no unit, no text: just the number

Query :: # get_value(readout='shrunken log2 fold change', item= RRIRHRPPRLPRPRPRPYDFPRP )
Result :: -0.0434

Query :: # get_value(readout='shrunken log2 fold change', item= RRIRIRPPRLPRPRPRPRNHPRP )
Result :: -0.354

Query :: # get_value(readout='shrunken log2 fold change', item= RRIRHRPPRLPRPRPRPCWLPRP )
Result :: -0.0661

Query :: # get_value(readout='shrunken log2 fold change', item= RRIRHRPPRLPRPRPRPAYHPRP )
Result :: -0.274

Query :: # get_value(readout='shrunken log2 fold change', item= RRIRARPPRLPRPRPRPEKNPRP )
Result :: 0.538

Query :: # get_value(readout='shrunken log2 fold change', item= RRIRYRPPRLPRPRPRPEYNPRP )
Result :: -0.15
